system: CYP1A1 (induction through AHR^d); test: CYP1A1 qPCR in AHR^d splenocytes; conditions: AHR^d congenic on a C57BL/6J background, mouse
value.kind: EC50 at 4 h (nM)
Answers are plain numbers, in nM.

Enquiry: Quick one: EC50 at 4 h for `Clc1cc2c(cc1Cl)Oc1cc(Cl)c(Cl)cc1O2` ?
Return: 1.89

* * *

Target: murine AHR^d (Mus musculus, UniProt P30561, A375V)
Sequence (P30561 10-848 A375V): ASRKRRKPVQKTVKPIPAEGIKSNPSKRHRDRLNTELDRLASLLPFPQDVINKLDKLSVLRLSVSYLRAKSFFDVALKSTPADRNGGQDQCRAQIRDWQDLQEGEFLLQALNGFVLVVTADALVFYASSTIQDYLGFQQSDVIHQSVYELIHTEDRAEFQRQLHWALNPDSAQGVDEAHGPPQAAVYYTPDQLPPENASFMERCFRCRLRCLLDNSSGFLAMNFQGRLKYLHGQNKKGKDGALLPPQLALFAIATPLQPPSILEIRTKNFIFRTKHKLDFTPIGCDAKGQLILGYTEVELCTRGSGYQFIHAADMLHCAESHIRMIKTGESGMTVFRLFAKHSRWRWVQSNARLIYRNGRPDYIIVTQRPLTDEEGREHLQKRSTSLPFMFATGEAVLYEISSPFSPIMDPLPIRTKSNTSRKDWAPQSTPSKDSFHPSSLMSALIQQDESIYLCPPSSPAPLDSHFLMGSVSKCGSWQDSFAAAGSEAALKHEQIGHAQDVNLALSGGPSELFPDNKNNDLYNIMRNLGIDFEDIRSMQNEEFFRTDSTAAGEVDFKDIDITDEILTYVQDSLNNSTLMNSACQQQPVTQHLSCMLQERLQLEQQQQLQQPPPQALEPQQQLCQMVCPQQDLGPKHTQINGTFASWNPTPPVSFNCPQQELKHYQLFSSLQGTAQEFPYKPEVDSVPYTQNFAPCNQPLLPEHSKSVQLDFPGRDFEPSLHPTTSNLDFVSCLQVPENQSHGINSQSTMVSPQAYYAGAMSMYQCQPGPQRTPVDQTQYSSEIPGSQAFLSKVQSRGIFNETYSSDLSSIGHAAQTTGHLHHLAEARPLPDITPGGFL
Test: EROD activity in AHR^d-15 cells (rat hepatoma BP8 stably transfected with AHR^d)
value.kind: EC50

Enquiry: Quick one: EC50 for `Clc1cc2c(cc1Cl)Oc1cc(Cl)c(Cl)cc1O2` ?
Return: ~0.03 µM

* * *

Biological target: AHR^b isoform (C57BL/6J hepatic cytosol) (Mus musculus)
Sequence (P30561 10-805): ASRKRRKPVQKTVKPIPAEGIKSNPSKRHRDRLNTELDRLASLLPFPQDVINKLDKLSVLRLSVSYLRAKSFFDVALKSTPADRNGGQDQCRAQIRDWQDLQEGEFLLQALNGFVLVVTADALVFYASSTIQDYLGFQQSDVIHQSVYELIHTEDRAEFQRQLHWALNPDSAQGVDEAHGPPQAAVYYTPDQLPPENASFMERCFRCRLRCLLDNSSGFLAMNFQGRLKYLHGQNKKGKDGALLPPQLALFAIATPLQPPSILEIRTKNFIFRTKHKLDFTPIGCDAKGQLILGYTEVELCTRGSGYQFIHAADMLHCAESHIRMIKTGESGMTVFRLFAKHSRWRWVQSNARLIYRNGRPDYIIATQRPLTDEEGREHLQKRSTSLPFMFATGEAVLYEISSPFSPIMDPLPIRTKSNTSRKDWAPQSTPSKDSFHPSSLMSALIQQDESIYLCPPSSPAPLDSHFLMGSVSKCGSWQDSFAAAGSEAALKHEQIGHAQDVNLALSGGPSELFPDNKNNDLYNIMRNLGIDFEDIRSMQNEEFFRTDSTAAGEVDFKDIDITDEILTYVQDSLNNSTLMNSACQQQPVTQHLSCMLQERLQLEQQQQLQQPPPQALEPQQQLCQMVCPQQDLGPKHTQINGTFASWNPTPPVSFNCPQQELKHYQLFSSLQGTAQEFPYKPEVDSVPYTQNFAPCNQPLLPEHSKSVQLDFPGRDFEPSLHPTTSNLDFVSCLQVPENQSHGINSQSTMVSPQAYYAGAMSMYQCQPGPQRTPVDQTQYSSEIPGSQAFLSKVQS
Conditions: read-out: IC50, competitive binding; C57BL/6J cytosol, 1 nM radioligand 125IBr2N3DpD
value.kind: pIC50
Give bare numbers, as −log10 of the molar value.

Enquiry: Quick one: pIC50 for c1ccc2cc3c(ccc4ccccc43)cc2c1 [1,2-Benzanthracene] ?
Return: 7.86

* * *

target: AHR A375V (AHR^d type) (Mus musculus, UniProt P30561, A375V); experiment: DRE-luciferase in COS-1 cells transfected with mAHR-A375V
value.kind: pEC50
Answers are plain numbers, as −log10 of the molar value.

Enquiry: Quick one: pEC50 for `Clc1cc2c(cc1Cl)Oc1cc(Cl)c(Cl)cc1O2` ?
Return: 8.61
